Molecular target: mMASP-2 (Mus musculus (Mouse), UniProt Q91WP0)
Sequence (Q91WP0 20-685): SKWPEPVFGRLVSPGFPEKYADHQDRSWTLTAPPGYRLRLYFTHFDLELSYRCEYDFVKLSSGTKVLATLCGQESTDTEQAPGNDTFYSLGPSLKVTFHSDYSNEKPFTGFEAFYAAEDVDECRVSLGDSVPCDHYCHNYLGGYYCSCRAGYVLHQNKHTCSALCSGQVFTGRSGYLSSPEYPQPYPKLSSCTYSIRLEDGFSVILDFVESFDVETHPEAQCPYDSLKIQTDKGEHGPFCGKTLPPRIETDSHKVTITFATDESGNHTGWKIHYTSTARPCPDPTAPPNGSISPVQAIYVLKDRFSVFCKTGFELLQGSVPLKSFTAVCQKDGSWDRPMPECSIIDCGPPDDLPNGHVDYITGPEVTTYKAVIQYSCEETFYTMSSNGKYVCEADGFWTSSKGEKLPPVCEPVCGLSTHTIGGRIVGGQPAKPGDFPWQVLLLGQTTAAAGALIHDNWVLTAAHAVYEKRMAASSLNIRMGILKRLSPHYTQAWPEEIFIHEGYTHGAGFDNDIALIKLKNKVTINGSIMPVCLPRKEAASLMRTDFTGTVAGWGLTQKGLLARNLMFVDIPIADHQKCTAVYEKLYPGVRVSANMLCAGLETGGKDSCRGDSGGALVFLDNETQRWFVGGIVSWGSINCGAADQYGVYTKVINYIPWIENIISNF
Test: Enzymatic inhibition of mMASP-2
Format: biochemical
Settings: read-out: mMASP-2 Ki
pKi: −log10 of the molar value. Where a name gives a salt, the structure may show the parent alone. Square brackets hold non-standard residues; d marks the D form. Peptide text beside a SMILES is read from it. * marks the point of attachment. dChg = N[C@@H](C(=O)O)C1CCCCC1; Agmatine = N=C(N)NCCCCN*; Aze = O=C(O)[C@@H]1CCN1
REPORTED_PROPERTY: pKi

stdin: Given C[C@H](NC(=O)[C@H]1C[C@H](c2ccccc2)CN1)C(=O)NCc1cc(Cl)ccc1O [compound 1242] , state its recorded pKi.
stdout: 5.00 to 5.60

stdin: I am curious: what pKi value has been reported for Cc1nc(N)ccc1CNC(=O)[C@H](C)NC(=O)[C@H]1C[C@H](Cc2ccc(F)c3ccccc23)CN1 [compound 1423, Dihydrochloride] ?
stdout: > 6.30

stdin: So what's the measured pKi for this one? Cc1nc(N)ccc1CNC(=O)[C@H](C)NC(=O)[C@H]1C[C@H](Cc2ccc(C#N)c3ccccc23)CN1 [compound 1431, Dihydrochloride]
stdout: > 6.30

stdin: Entry C[C@H](NC(=O)[C@H]1C[C@H](Cc2ccccc2)CN1)C(=O)NCc1cc2cnccc2[nH]1 [compound 1472, Di-trifluoroacetate salt] : reported pKi = ?
stdout: > 6.30

stdin: # input molecule: N=C(N)NCCCCNC(=O)[C@@H]1CCN1C(=O)[C@H](N)C1CCCCC1 [compound 1006, Dihydrochloride] (H-[dChg]-[Aze]-Agmatine) ; wanted: its pKi
stdout: > 6.30

stdin: What value of pKi has been recorded for this entry: Cc1nc(N)ccc1CNC(=O)[C@H](C)NC(=O)[C@H]1C[C@H](Cc2ccc3nonc3c2)CN1 [compound 1470, Di-trifluoroacetate salt]
stdout: > 6.30

stdin: Consider the molecule shown here: CC(C)COC(=O)NC(=N)c1ccc(CNC(=O)[C@H](C)NC(=O)[C@H]2C[C@H](c3ccccc3)CN2)cc1 [compound 1293] What is its recorded pKi?
stdout: 5.00 to 5.60

stdin: Param item = C[C@H](NC(=O)[C@H]1C[C@H](c2ccccc2)CN1)C(=O)NCc1cc(Cl)c[nH]c1=O [compound 1301, Hydrochloride] ; retrieve measured pKi.
stdout: < 4.60

stdin: Which pKi is listed for C[C@H](NC(=O)[C@H]1C[C@H](Cc2ccccc2Br)CN1)C(=O)NCc1cnc2c(c1)c(Cl)cn2C [compound 1482, Hydrochloride] ?
stdout: > 6.30

stdin: Quick check: pKi of C[C@H](NC(=O)[C@H]1C[C@H](Cc2ccc3ccccc3c2)CN1)C(=O)NCc1cnc2[nH]cc(Cl)c2c1 [compound 1392, Di-Trifluoroacetate salt] ?
stdout: > 6.30

stdin: Bench note: what pKi did C[C@H](NC(=O)[C@H]1C[C@H](Cc2ccc(C3CCC3)cc2)CN1)C(=O)NCc1cnc2[nH]cc(Cl)c2c1 [compound 1378, Di-trifluoroacetate salt] show?
stdout: > 6.30

stdin: Suppose we examine the molecule CCCCCN[C@H](CCc1ccccc1)C(=O)N[C@@H](C)C(=O)NCc1ccc(C(=N)N)cc1 [compound 1125] ; what pKi value has been reported?
stdout: > 6.30

stdin: I would be grateful if you could share the reported pKi for C[C@H](NC(=O)[C@H]1C[C@H](Cc2ccc(F)c(Cl)c2)CN1)C(=O)NCc1cc2cnccc2[nH]1 [compound 1494, Di-trifluoroacetate salt] .
stdout: > 6.30
